Catalogue of IC50 values
# tested_on: Mitogen-activated protein kinase 10 (Homo sapiens, UniProt P53779)
# Sequence (P53779 whole entry): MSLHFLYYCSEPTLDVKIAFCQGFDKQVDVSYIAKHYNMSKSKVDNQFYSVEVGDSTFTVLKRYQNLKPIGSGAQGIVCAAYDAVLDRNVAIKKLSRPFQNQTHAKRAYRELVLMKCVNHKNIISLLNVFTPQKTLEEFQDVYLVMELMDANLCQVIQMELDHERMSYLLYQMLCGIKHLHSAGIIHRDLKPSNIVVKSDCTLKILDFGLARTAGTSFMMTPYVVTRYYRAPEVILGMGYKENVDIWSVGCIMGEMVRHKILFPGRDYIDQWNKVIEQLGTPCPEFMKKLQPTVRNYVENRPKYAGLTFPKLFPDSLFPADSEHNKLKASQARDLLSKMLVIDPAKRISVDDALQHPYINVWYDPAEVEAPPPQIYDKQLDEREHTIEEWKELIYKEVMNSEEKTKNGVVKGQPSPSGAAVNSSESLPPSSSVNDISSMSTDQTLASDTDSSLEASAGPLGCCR
# experiment: Dose response biochemical screening assay for inhibitors of c-Jun N-Terminal Kinase 3 (JNK3). [Related pubchem assays: 746 ]

[
  {
    "chemical_string": "O=C1c2ccccc2-c2onc3ccc(NCCCn4ccnc4)c1c23",
    "tested_on": "Mitogen-activated protein kinase 10 (Homo sapiens, UniProt P53779)",
    "IC50": "22.2 µM (not active)"
  },
  {
    "chemical_string": "Cc1cc(O)ccc1-c1cnc2ccccc2n1",
    "tested_on": "Mitogen-activated protein kinase 10 (Homo sapiens, UniProt P53779)",
    "IC50": "28.1 µM (not active)"
  },
  {
    "chemical_string": "CCOC(=O)CCCc1sc(N)nc1-c1[nH]c(O)nc1C",
    "tested_on": "Mitogen-activated protein kinase 10 (Homo sapiens, UniProt P53779)",
    "IC50": "> 93.1 µM (not active)"
  },
  {
    "chemical_string": "COc1ccc(CC(=O)Nc2cc(C)ccn2)cc1",
    "tested_on": "Mitogen-activated protein kinase 10 (Homo sapiens, UniProt P53779)",
    "IC50": "21.4 µM (not active)"
  },
  {
    "chemical_string": "O=C(CCn1cnc2ccccc2c1=O)Nc1ccc(S(=O)(=O)N2CCCCC2)cc1",
    "tested_on": "Mitogen-activated protein kinase 10 (Homo sapiens, UniProt P53779)",
    "IC50": "38.4 µM (not active)"
  }
]
